# Method Description: Novel Modifiers of Survival Motor Neuron (SMN) Protein: Gene Identification via Genome-wide siRNA Screen;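 note: luminescence tracks full-length SMN protein made from the SMN2 reporter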
# Assay Context: HEK293T SMN2-luciferase reporter, siRNA knockdown, 72 h; actives lie on both sides
Out of some 31,000 sequences screened, about 1,400 (4.5%) were called active. Shown is part of a subset that was picked to be rich in actives.
Classification by median seed-adjusted z-score | ranges: label 0: < -0.02; label 1: ≥ -0.02 and < 0.4; label 2: ≥ 0.4

| Seq | Assigned Category |
| --- | --- |
| GAGUCGUUGUCCAUCUUAATT against SR140 | label 2 |

## Task Category of CCAUAAAUGCUACGAAUAUTT against EGFR , please.
## Result label 1

## Task Category of GGAUGCACCACAUCUAGUATT against RPS6KA3 , please.
## Result label 0

## Task Category of GGUUCUAACUUCGAAAAAUTT against DNAJC8 , please.
## Result label 0

## Task Category of GGGUUCACCUCAGAGAGCATT against DPF3 , please.
## Result label 1

## Task Category of GAACAUGUCUUUAACGGAUTT against TJP2 , please.
## Result label 1

## Task Category of CUCCAGAUAUAGACCUCAATT against TRIM22 , please.
## Result label 1

====

# Method Description: Novel Modifiers of Survival Motor Neuron (SMN) Protein: Gene Identification via Genome-wide siRNA Screen;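 note: luminescence tracks full-length SMN protein made from the SMN2 reporter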
# Assay Context: HEK293T SMN2-luciferase reporter, siRNA knockdown, 72 h; actives lie on both sides
In all, about 31,000 sequences went through this assay and about 1,400 (4.5%) were called active. Only a selection was taken, and actives are over-represented in it overall.
Value Kind: median seed-adjusted z-score
Answer with a number only.

// solved cases for median seed-adjusted z-score follow
| Seq | median seed-adjusted z-score |
| --- | --- |
| GAAACAGUGCUGAAGCCUUTT against RYBP | 0.831 |
| ACAUCUUCAAGGCCCUUUUTT against CTDSP2 | 0.498 |
| CCAGAUGGAUGUACACUGUTT against PDE6C | 0.205 |
| CCCUCUACCUCGUCCGAAUTT against SIRPA | -0.153 |
| CCUGCUUACCUGAUCAAAATT against SLC25A34 | -0.256 |

We now examine a further sequence.
## Task Any idea what its median seed-adjusted z-score is? The sequence is CGUGGUACCAGACAUCUGATT against CCL17
## Result 0.178

====

Quick reference: median seed-adjusted z-score of the listed items.
# Method Description: Novel Modifiers of Survival Motor Neuron (SMN) Protein: Gene Identification via Genome-wide siRNA Screen;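 note: luminescence tracks full-length SMN protein made from the SMN2 reporter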
# Assay Context: HEK293T SMN2-luciferase reporter, siRNA knockdown, 72 h; actives lie on both sides
Screen size: about 31,000 sequences; about 1,400 (4.5%) were called active. This is one part of a sample in which actives are shown more often than they occur.
Answer with a number only.

## Task Any idea what its median seed-adjusted z-score is? The sequence is CAGAUGACUUCAGAACCAATT against KRT33B
## Result 0.04

## Task Any idea what its median seed-adjusted z-score is? The sequence is CCGCGAAGAUGUUAGCAUUTT against PRSS12
## Result 0.119

## Task Any idea what its median seed-adjusted z-score is? The sequence is CAACGAUAUUUGGAUAUCUTT against DPP8
## Result -0.0209

## Task Any idea what its median seed-adjusted z-score is? The sequence is UGGGAAUGGUAGAAACAAATT against PPIL1
## Result 0.166

## Task Any idea what its median seed-adjusted z-score is? The sequence is CAUCCACACUUCUCCAGAATT against HK1
## Result -0.129

## Task Any idea what its median seed-adjusted z-score is? The sequence is GAGCGCCUCUAGAAUGUAATT against HMX1
## Result 1.3

## Task Any idea what its median seed-adjusted z-score is? The sequence is UCCUCAAGAGUUCACCUAUTT against FCRL2
## Result -0.294

## Task Any idea what its median seed-adjusted z-score is? The sequence is GCACUCUUCUCAUUCACGATT against ATP1B3
## Result -0.225

## Task Any idea what its median seed-adjusted z-score is? The sequence is GCAUGUCCAAUGUUCCAUATT against ACAT1
## Result -0.848
